Ki by entry:
# ASSAY_TARGET: alpha-1D adrenoceptor (Homo sapiens)
# Construct: expressed in transfected cells; host or cells: CHO-K1
# Sequence (P25100 whole entry): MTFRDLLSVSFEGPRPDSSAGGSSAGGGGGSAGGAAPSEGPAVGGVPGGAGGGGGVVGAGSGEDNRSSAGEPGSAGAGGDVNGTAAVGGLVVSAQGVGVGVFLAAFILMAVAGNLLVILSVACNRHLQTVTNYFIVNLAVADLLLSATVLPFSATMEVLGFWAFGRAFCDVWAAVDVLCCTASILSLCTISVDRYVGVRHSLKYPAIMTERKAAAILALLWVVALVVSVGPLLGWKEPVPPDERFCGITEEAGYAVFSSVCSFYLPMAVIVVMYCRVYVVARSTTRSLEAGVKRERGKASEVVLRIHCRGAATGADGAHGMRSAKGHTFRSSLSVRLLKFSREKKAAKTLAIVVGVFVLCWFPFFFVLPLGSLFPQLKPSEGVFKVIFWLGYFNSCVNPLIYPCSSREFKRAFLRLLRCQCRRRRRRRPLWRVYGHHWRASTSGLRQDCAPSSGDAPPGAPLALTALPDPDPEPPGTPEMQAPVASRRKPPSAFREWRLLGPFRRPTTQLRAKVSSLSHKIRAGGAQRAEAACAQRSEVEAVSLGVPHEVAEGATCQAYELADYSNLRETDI
# ASSAY_INFO: [3H]prazosin binding (alpha1-adrenoceptor) assay, alpha-1D
# RECORDED_CONDITIONS: membranes of transfected CHO-KI cells, read-out: affinity towards the alpha-1D adrenoceptor (pKi) (converted)

Example compounds with recorded Ki:
{"columns": ["SMILES_REPR", "Ki"],
 "data": [
  ["COc1cc2nc(N3CCc4c(cc(OC)c(OC)c4C#N)C3)[nH]c(=O)c2cc1OC", "0.017 µM"],
  ["COc1cc2[nH]c(N3CCn4c(cnc4N4CCOCC4)C3)nc(=O)c2cc1OC", "0.123 µM"],
  ["COc1cc2c(cc1OC)S(=O)(=O)NC(N1CCc3c(ncnc3N3CCOCC3)C1)=N2", "0.339 µM"]
]}

Query: Output Ki of `COc1cc2nc(N3CCc4c(cccc4N=CN(C)C)C3)[nH]c(=O)c2cc1OC`
Result: 0.372 µM
